The measurements presented in this section are drawn from patent EP0278686A1.

Tested on: human T-cell line CCRF/CEM
Assay: In vitro cytotoxicity in cell culture, CCRF/CEM
Type: cell-based
Details: read-out: ED50 (the source's name)
Catalogue of EC50 values
The response must be a number in nM with no trailing unit.

Prompt line: Requested field: EC50. Item: COc1ccc(O)cc1Cc1cnc2nc(N)nc(N)c2c1C
Response line: 80

Prompt line: EC50 for COc1ccc(O)c(Cc2cnc3nc(N)nc(N)c3c2C)c1 ?
Response line: 400

====

Biological target: DHFR (Rattus norvegicus, UniProt Q920D2)
Construct: DHFR isolated from bacterial and mammalian sources
Sequence (Q920D2 whole entry): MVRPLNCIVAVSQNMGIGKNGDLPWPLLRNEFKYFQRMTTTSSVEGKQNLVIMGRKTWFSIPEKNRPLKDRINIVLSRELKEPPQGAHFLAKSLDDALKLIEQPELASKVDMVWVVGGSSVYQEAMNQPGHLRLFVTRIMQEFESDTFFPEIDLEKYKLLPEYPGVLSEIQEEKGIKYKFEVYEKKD
Assay: In vitro DHFR binding affinities (DHFR inhibition), rat liver enzyme
experimental endpoint: pIC50
Here pIC50 is given on a logarithmic scale as minus log10 of the concentration in mol/L.

COc1ccc(O)c(Cc2cnc3nc(N)nc(N)c3c2C)c1 = 7.74

Alright, here's another compound for you.
Prompt line: Using the record for COc1ccc(O)cc1Cc1cnc2nc(N)nc(N)c2c1C , report its pIC50.
Response line: 7.92
